- System: SNB-75
- protocol description: NCI tumour cell line growth inhibition, 48 h
Active and inactive are the calls of the source. Cut-off read from the data, not from the text of the source: active = GI50 up to about 1.1 µM and inactive = higher.
Outcomes: active, inactive

>>> print(df.to_string())
                                   compound  answer_label
0      CC1=N/C(=C\c2c(O)ccc3ccccc23)C(=O)O1        active
1  N#CC1C(=O)SC2c3ccccc3C(=O)c3ccccc3C12 (stereo not given)      inactive
2       O=C(O)/C=C/c1ccc(Oc2ccccc2C(=O)O)o1      inactive
3  CC1(C)[C@@H]2C[C@H]1c1cnc(-c3ccccn3)cc1C2CCCCC[C@@H]1c2cc(-c3ccccn3)ncc2[C@@H]2C[C@H]1C2(C)C (stereo not given in full)        active
4  COc1cc2c(cc1OC)C1=Cc3cc(OC)c(OC)cc3C(C)N1C=C2 (stereo not given)      inactive
